- Protocol description: chemical genetic growth profiling, strain panel (AID 1159580);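 note: tested at 20 µM; growth read once vehicle control cultures reached saturation at 30 °C; 1 = growth at the plate median or of vehicle wells; lower values mean less growth of the strain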
- Run conditions: S. cerevisiae deletion strains, growth OD, locus YDR052C, strain DBF4, stronger effect = lower value
Screen size: about 5,500 compounds; about 2,000 (36%) were called active. Not shown: some 18% with an inconclusive outcome. Some of the results follow.
Let's look at some molecules and their measured normalized growth.
# output: bare number, no unit

* Cc1onc(-c2ccccc2)c1C(=O)Sc1ccc(C(F)(F)F)cn1 | 0.977
* CNC(=O)n1nc(C)c(Cc2csc3ccc(Cl)cc23)c1C | 1
* COc1cc(CC/C(C)=N/O)ccc1OCc1ccc(Cl)cc1Cl | 0.989
* O=C(Nc1ccc(F)c(Cl)c1)c1ccccc1O | 0.884
* O=C1/C(=C/c2ccc(C(F)(F)F)cc2)COc2ccccc21 | 0.931

**Q:** Suppose we examine the molecule "O=C(Nc1ccc(Cl)cc1)O/N=C\c1ccn(-c2ccccc2)n1" ; what normalized growth value has been reported?
**A:** 0.982

**Q:** normalized growth lookup needed for "Cc1nn(Cc2nnc(SCc3cccc(C(F)(F)F)c3)o2)c(C)c1Br" , thanks.
**A:** 0.983

**Q:** Any idea what its normalized growth is? The molecule is "O=C(CCn1c(=O)oc2ccccc21)Sc1ccc(Cl)cc1Cl"
**A:** 0.936

**Q:** # query: normalized growth of entry "C/C(=N/Nc1ccccc1)c1cc(Cl)cc(Cl)c1O"
**A:** 0.968

* * *

- Protocol description: chemical genetic growth profiling, strain panel (AID 1159580);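 note: tested at 20 µM; growth read once vehicle control cultures reached saturation at 30 °C; 1 = growth at the plate median or of vehicle wells; lower values mean less growth of the strain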
- Run conditions: S. cerevisiae deletion strains, growth OD, locus YBR023C, strain chs3, stronger effect = lower value
The whole screen tested about 5,500 compounds, of which about 2,000 (36%) were called active. Another 18% or so got no clear call; they are omitted. This is one part of the list.
Result type: normalized growth
Keep it simple and answer with nothing but the number.

Example cases with answers are listed next.
• O=C(Nc1ccccc1)Nc1ccccc1 = 0.954
• COc1ccc(C(=O)N2CCCC2=O)cc1 = 0.967
• CC(=O)Nc1ccccc1 = 0.961
• Cc1cc(O)c(C=O)c2c1C(=O)Oc1c(COC(=O)/C=C/C(=O)O)c(O)c(C(=O)O)c(C)c1O2 = 0.967
• O=C(O)CCC(=O)Nc1ccc(S(=O)(=O)Nc2nccs2)cc1 = 0.993

**Q:** If you can, please state the reported normalized growth value of Cc1ncc([N+](=O)[O-])n1CC(C)O (stereo unspecified) .
**A:** 0.995

**Q:** Using the record for "O=C(O)c1ccccc1C(=O)Nc1ccc(S(=O)(=O)Nc2nccs2)cc1" , report its normalized growth.
**A:** 0.966

**Q:** Which normalized growth is reported for this molecule? "CCN(CC)CCOC(=O)C(c1ccccc1)c1ccccc1"
**A:** 0.957

**Q:** Any idea what normalized growth was measured for "C=C[C@H]1CN2CC[C@H]1C[C@@H]2[C@H](O)c1ccnc2ccccc12" ?
**A:** 0.981

**Q:** Which normalized growth value is on record for OC[C@H]1OC([S-])[C@H](O)[C@@H](O)[C@@H]1O.[Au+] (stereo partly specified) ?
**A:** 1.01

**Q:** What value of normalized growth has been reported for the following molecule? "CO[C@]12C[C@@H](COC(=O)c3cncc(Br)c3)CN(C)[C@@H]1Cc1cn(C)c3cccc2c13"
**A:** 0.979
